The reader will find reported thermal stability score values listed item by item below.
test system: HeLa Kyoto; assay: thermal stability score vs G1/S (z-score of summed log2 fold changes over temperatures); higher = more thermally stable than in G1/S; details: cell cycle stage: early G1 (4.5 h after nocodazole release);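 further: synchronized HeLa Kyoto cells, proteins quantified by TMT10plex mass spectrometry, three biological replicates, mitosis taken 0.5 h after nocodazole release, G1/S directly after double thymidine block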

SEQ	REPORTED MEASUREMENT
MANIAVQRIKREFKEVLKSEETSKNQIKVDLVDENFTELRGEIAGPPDTPYEGGRYQLEIKIPETYPFNPPKVRFITKIWHPNISSVTGAICLDILKDQWAAAMTLRTVLLSLQALLAAAEPDDPQDAVVANQYKQNPEMFKQTARLWAHVYAGAPVSSPEYTKKIENLCAMGFDRNAVIVALSSKSWDVETATELLLSN [UBE2K]	-2.17
MTTQQIDLQGPGPWGFRLVGGKDFEQPLAISRVTPGSKAALANLCIGDVITAIDGENTSNMTHLEAQNRIKGCTDNLTLTVARSEHKVWSPLVTEEGKRHPYKMNLASEPQEVLHIGSAHNRSAMPFTASPASSTTARVITNQYNNPAGLYSSENISNFNNALESKTAASGVEANSRPLDHAQPPSSLVIDKESEVYKMLQEKQELNEPPKQSTSFLVLQEILESEEKGDPNKPSGFRSVKAPVTKVAASIGNAQKLPMCDKCGTGIVGVFVKLRDRHRHPECYVCTDCGTNLKQKGHFFVEDQIYCEKHARERVTPPEGYEVVTVFPK [PDLIM1]	-1.51
MAAYKLVLIRHGESAWNLENRFSGWYDADLSPAGHEEAKRGGQALRDAGYEFDICFTSVQKRAIRTLWTVLDAIDQMWLPVVRTWRLNERHYGGLTGLNKAETAAKHGEAQVKIWRRSYDVPPPPMEPDHPFYSNISKDRRYADLTEDQLPSCESLKDTIARALPFWNEEIVPQIKEGKRVLIAAHGNSLRGIVKHLEGLSEEAIMELNLPTGIPIVYELDKNLKPIKPMQFLGDEETVRKAMEAVAAQGKAKK [PGAM1]	-0.0829
MSNKEGSGGFRKRKHDNFPHNQRREGKDVNSSSPVMLAFKSFQQELDARHDKYERLVKLSRDITVESKRTIFLLHRITSAPDMEDILTESEIKLDGVRQKIFQVAQELSGEDMHQFHRAITTGLQEYVEAVSFQHFIKTRSLISMDEINKQLIFTTEDNGKENKTPSSDAQDKQFGTWRLRVTPVDYLLGVADLTGELMRMCINSVGNGDIDTPFEVSQFLRQVYDGFSFIGNTGPYEVSKKLYTLKQSLAKVENACYALKVRGSEIPKHMLADVFSVKTEMIDQEEGIS [TSNAX]	-0.435

--- query ---
Per the record, MAGSYPEGAPAILADKRQQFGSRFLSDPARVFHHNAWDNVEWSEEQAAAAERKVQENSIQRVCQEKQVDYEINAHKYWNDFYKIHENGFFKDRHWLFTEFPELAPSQNQNHLKDWFLENKSEVCECRNNEDGPGLIMEEQHKCSSKSLEHKTQTPPVEENVTQKISDLEICADEFPGSSATYRILEVGCGVGNTVFPILQTNNDPGLFVYCCDFSSTAIELVQTNSEYDPSRCFAFVHDLCDEEKSYPVPKGSLDIIILIFVLSAVVPDKMQKAINRLSRLLKPGGMVLLRDYGRYDMAQLRFKKGQCLSGNFYVRGDGTRVYFFTQEELDTLFTTAGLEKVQNLVDRRLQVNRGKQLTMYRVWIQCKYCKPLLSSTS [METTL2B] has thermal stability score of -0.391
